Exercise: for every item that follows, state its recorded % bound.
- tested_target: T1, rat collagen, acid soluble, type I, rat tail (Upstate 08-115) (rat, UniProt P02454 152-1207; P02466 86-1125)
- T1 construct: tissue extract, gelled and dried in wells; also called dried rat collagen
- T1 sequence (P02454 152-1207, chain 1 of 2): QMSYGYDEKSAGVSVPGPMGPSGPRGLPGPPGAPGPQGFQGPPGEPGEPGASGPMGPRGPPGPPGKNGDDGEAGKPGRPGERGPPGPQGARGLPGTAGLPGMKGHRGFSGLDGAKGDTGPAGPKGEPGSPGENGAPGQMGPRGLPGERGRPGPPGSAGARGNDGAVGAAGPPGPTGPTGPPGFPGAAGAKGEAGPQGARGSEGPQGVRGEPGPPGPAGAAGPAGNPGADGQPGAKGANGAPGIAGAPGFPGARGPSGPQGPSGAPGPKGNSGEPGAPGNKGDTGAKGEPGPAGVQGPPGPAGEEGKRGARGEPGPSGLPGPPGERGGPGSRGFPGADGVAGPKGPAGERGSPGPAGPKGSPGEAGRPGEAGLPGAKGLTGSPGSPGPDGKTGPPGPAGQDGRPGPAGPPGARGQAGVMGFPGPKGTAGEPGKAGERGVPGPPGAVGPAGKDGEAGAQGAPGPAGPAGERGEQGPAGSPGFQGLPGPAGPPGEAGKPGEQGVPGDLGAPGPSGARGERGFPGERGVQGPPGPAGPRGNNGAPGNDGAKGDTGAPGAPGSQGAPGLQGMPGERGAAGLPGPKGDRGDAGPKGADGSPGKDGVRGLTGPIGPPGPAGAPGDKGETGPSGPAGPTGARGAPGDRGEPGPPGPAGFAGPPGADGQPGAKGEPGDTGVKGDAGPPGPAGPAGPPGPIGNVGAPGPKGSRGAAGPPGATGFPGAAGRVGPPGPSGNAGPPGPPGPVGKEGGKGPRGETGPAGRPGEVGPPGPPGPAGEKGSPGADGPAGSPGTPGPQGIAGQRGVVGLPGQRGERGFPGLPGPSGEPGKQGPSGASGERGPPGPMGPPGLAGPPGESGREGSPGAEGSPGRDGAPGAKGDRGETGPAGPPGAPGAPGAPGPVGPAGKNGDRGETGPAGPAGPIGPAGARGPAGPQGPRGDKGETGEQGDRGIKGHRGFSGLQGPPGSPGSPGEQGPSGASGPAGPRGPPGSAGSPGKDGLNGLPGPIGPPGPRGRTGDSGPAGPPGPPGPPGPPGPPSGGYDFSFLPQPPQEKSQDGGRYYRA
- T1 sequence (P02466 86-1125, chain 2 of 2): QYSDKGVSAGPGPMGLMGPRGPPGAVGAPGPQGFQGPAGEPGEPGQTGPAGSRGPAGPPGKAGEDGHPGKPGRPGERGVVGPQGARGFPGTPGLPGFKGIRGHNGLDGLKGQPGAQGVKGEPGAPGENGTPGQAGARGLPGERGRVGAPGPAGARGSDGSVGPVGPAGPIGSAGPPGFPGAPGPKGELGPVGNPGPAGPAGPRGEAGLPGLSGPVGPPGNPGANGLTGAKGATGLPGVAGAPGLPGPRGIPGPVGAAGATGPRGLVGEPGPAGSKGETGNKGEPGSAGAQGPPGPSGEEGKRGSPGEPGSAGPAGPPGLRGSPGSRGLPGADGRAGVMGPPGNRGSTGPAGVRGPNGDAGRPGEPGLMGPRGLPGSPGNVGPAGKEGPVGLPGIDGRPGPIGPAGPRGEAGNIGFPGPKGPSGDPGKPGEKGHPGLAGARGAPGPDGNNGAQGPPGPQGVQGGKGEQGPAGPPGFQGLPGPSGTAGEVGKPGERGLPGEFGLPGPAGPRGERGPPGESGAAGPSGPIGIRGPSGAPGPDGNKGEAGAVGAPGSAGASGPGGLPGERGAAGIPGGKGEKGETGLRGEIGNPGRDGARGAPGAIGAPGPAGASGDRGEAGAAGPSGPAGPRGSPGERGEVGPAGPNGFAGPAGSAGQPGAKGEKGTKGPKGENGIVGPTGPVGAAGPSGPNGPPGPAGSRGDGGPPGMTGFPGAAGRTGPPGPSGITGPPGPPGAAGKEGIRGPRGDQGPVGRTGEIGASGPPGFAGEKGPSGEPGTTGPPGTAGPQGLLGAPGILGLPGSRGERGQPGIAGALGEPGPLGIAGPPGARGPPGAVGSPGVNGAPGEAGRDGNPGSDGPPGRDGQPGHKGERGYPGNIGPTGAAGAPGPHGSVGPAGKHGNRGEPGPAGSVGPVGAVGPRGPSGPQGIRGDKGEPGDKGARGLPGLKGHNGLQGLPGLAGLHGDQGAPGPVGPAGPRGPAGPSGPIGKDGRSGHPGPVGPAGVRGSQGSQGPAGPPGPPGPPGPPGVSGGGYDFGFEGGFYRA
- method_description: % binding to collagen I
Bridge positions count the residues as written; N and C are the ends. Primed or numbered codes have the meaning given here. Ends that are not written are not given here. Glu‑DTPA‑Gd = N-terminal Glu-DTPA-Gd chelate (gadolinium DTPA complex on glutamic acid); Glu‑DTPA‑Gd″ = N-terminal chelate: Glu-DTPA-Gd (glutamic acid–DTPA gadolinium chelate); Glu‑DTPA‑Gd(3) = N-terminal gadolinium chelate Glu-DTPA-Gd
One number for each entry, in %.

Below, 5 binders whose answers are already recorded.
| binder | unit_annotation | test_result |
| --- | --- | --- |
| WWGCRQGTGEHWSHCMWF (disulfide 4-15 (inferred); not fully specified (N-terminus, C-terminus); also: Gd chelated by DTPA at both ends) [SEQ ID NO 195] | % | 9 |
| {Glu‑DTPA‑Gd}-GQWTCSGDEYTWHCNYE (disulfide 5-14 (inferred); not fully specified (C-terminus), N-terminal G linker) [Compound ID 1021] | % | 13 |
| {Glu‑DTPA‑Gd}-WWTCHMTWSGQWDSCKWH-NH2 (disulfide 4-15 (inferred)) [Compound ID 1020] | % | 34 |
| {Glu‑DTPA‑Gd}-GQWHCTTRFPHHYCLYG (disulfide 5-14 (inferred); not fully specified (C-terminus), N-terminal G linker) [Compound ID 1022] | % | 38 |
| {Glu‑DTPA‑Gd(3)}-PPQWHCTTRFPHHYCLYG-NH2 (disulfide 6-15 (inferred), N-terminal P-P linker) [Compound ID 1024] | % | 55 |

Hey, can you go through the list below and give me % bound for every item?
1. {Glu‑DTPA‑Gd″}-GGDWTCVGDHKTWKCNFH-NH2 (disulfide 6-15 (inferred), N-terminal G-G linker) [Compound ID 1023]
2. WWTCHMTWSGQWDSCKWH-NH2 (disulfide 4-15 (inferred); not fully specified (N-terminus); also: Gd chelated by DTPA) [SEQ ID NO 196]

1: 12; 2: 34
